The reported numbers originate from ChEMBL document CHEMBL1142866.

Molecular target: Thymidine kinase (Human alphaherpesvirus 1, UniProt Q9QNF7)
Sequence (Q9QNF7 whole entry): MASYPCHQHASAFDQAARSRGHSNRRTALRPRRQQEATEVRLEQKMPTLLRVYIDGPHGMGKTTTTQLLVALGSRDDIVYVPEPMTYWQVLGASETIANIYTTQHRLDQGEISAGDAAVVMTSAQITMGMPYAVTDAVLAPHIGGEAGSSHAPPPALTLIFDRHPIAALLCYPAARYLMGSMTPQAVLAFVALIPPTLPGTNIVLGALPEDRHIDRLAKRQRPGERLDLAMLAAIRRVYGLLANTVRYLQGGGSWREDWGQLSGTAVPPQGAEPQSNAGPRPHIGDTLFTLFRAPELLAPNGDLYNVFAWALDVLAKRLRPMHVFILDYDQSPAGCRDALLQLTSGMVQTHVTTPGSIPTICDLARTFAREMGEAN
Assay: Inhibition of recombinant HSV-1 TK assessed as [CH3-H3]dThd phosphorylation
pIC50: −log10 of the molar value.
Each item that follows carries a reported pIC50.

The compound identified as O=c1nc2oc(-c3cccc(O)c3)cc2cn1[C@H]1C[C@H](O)[C@@H](CO)O1 registered its pIC50 at < 3.30

The compound identified as Nc1nc2c(ncn2CCC(CO)CF)c(=O)[nH]1 (configuration not stated) registered its pIC50 at 5.05

The compound identified as O=c1nc2oc(-c3ccc(F)cc3)cc2cn1[C@H]1C[C@H](O)[C@@H](CO)O1 registered its pIC50 at < 3.30

The compound identified as COc1cccc(-c2cc3cn([C@H]4C[C@H](O)[C@@H](CO)O4)c(=O)nc3o2)c1 registered its pIC50 at < 3.30

The compound identified as O=c1nc2oc(-c3cccc(OCCF)c3)cc2cn1[C@H]1C[C@H](O)[C@@H](CO)O1 registered its pIC50 at < 3.30

The compound identified as O=c1nc2oc(-c3ccccc3F)cc2cn1C1C[C@H](O)[C@@H](CO)O1 (some centres not stated) registered its pIC50 at < 3.30

The compound identified as Nc1nc2c(ncn2CCC(CO)CO)c(=O)[nH]1 registered its pIC50 at 4.96

----------
Assay: Metabolic stability in mouse urine after 30 mins
Format: ADME, tissue-based
Conditions: read-out: Stability
measured-endpoint: remaining at 0.5 h (%)
Please respond with the number in % and leave the unit unwritten.

The compound identified as [11CH3]Oc1cccc(-c2cc3cn([C@H]4C[C@H](O)[C@@H](CO)O4)c(=O)nc3o2)c1 registered its remaining at 0.5 h at 90

----------
Assay: Metabolic stability in mouse urine after 60 mins
Format: ADME, tissue-based
Conditions: read-out: Stability
measured-endpoint: remaining at 1 h (%)
Please respond with the number in % and leave the unit unwritten.

The compound identified as [11CH3]Oc1cccc(-c2cc3cn([C@H]4C[C@H](O)[C@@H](CO)O4)c(=O)nc3o2)c1 registered its remaining at 1 h at 90

----------
Experiment: Partition coefficient, log P at pH 7.4
Format: physicochemical
Conditions: octanol/water
measured-endpoint: logD
# answer = number (no unit)

The compound identified as [11CH3]Oc1cccc(-c2cc3cn([C@H]4C[C@H](O)[C@@H](CO)O4)c(=O)nc3o2)c1 registered its logD at 1.27

The compound identified as O=c1nc2oc(-c3cccc(OCC[18F])c3)cc2cn1[C@H]1C[C@H](O)[C@@H](CO)O1 registered its logD at 1.24

----------
Each item that follows carries a reported pIC50.
Target: Thymidine kinase, cytosolic (Homo sapiens, UniProt P04183)
Sequence (P04183 whole entry): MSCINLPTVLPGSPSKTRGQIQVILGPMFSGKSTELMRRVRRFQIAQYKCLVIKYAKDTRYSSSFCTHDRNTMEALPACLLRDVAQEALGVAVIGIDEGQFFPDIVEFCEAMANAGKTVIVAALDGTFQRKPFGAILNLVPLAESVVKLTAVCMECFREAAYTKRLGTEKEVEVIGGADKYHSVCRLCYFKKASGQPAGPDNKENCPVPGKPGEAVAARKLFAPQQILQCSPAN
Test: Inhibition of recombinant cytosolic TK-1 assessed as [CH3-H3]dThd phosphorylation
pIC50: −log10 of the molar value.

The compound identified as O=c1nc2oc(-c3cccc(O)c3)cc2cn1[C@H]1C[C@H](O)[C@@H](CO)O1 registered its pIC50 at < 3.30
